# Test system: Bentgrass
# ASSAY_OVERVIEW: Turf grass selectivity, greenhouse pot test
# Assay type: in vivo, Agrostris palustris
# SETUP_CONDITIONS: 50 g ai/ha, 4 weeks
MEASURED_PARAMETER: phytotoxicity (visual assessment 0-10)

Solved cases (3 shown):
COc1nc(C)nc(NC(=O)NS(=O)(=O)c2cscc2C2(CF)OCCO2)n1 [Example 2]; 10
Cc1cc(C)nc(NC(=O)NS(=O)(=O)c2ccccc2C(O)C(C)F)n1 (stereo not shown) [Example 1]; 0
COc1cc(OC)nc(NC(=O)NS(=O)(=O)c2ncccc2C(F)(F)F)n1 [Control chemical No. 2, Flazasulfuron, reference compound]; 10

Okay, next one:
Item CCOC(=O)c1cnn(C)c1S(=O)(=O)NC(=O)Nc1nc(OC)cc(OC)n1 [Control chemical No. 1, Pyrazosulfuron ethyl, reference compound] has what recorded phytotoxicity (visual assessment 0-10)? 0

* * *

Each item that follows carries a reported phytotoxicity (visual assessment 0-10).
# Tested on: Bentgrass
# ASSAY_OVERVIEW: Turf grass selectivity, greenhouse pot test
# Format: in vivo, Agrostris palustris
# SETUP_CONDITIONS: 400 g ai/ha, 2 weeks

Solved cases (3 shown):
COc1cc(OC)nc(NC(=O)NS(=O)(=O)c2ncccc2C(F)(F)F)n1 [Control chemical No. 2, Flazasulfuron, reference compound]; 10
COc1nc(C)nc(NC(=O)NS(=O)(=O)c2cscc2C2(CF)OCCO2)n1 [Example 2]; 10
Cc1cc(C)nc(NC(=O)NS(=O)(=O)c2ccccc2C(O)C(C)F)n1 (stereo not shown) [Example 1]; 3

Item CCOC(=O)c1cnn(C)c1S(=O)(=O)NC(=O)Nc1nc(OC)cc(OC)n1 [Control chemical No. 1, Pyrazosulfuron ethyl, reference compound] has what recorded phytotoxicity (visual assessment 0-10)? 3

* * *

# Tested on: Cyperus amuricus
# ASSAY_OVERVIEW: Weed spectrum, greenhouse pot test
# Format: in vivo
# SETUP_CONDITIONS: Post-emergence, 12 g ai/ha, two weeks after application
# Text: To a rectangular plastic pot (surface area of 300 cm^2) in which sandy loam and mixed top soil (Boo-Nong Top Soil No. 3, for horticultural use) are filled in 1:1 ratio, eight different kinds of weed seeds including Poa annua and Digitaria sanguinalis as poaceae weed, Cyperus amuricus as cyperaceae weeds and Trifolium repens, Kummerowia striata, fleabane, Veronica officinalis and Portulaca oleracea as broadleaf weeds were sewn (50 to 100 seeds per each weed). […]
MEASURED_PARAMETER: efficacy (0-100 scale)
Simply state the number, no unit and no words.

Solved cases (3 shown):
COc1nc(C)nc(NC(=O)NS(=O)(=O)c2cscc2C2(CF)OCCO2)n1 [Example 2]; 30
CCOC(=O)c1cnn(C)c1S(=O)(=O)NC(=O)Nc1nc(OC)cc(OC)n1 [Control chemical No. 1, Pyrazosulfuron ethyl, reference compound]; 50
COc1cc(OC)nc(NC(=O)NS(=O)(=O)c2ncccc2C(F)(F)F)n1 [Control chemical No. 2, Flazasulfuron, reference compound]; 60

Item Cc1cc(C)nc(NC(=O)NS(=O)(=O)c2ccccc2C(O)C(C)F)n1 (stereo not shown) [Example 1] has what recorded efficacy (0-100 scale)? 90

* * *

# Tested on: Bentgrass
# ASSAY_OVERVIEW: Turf grass selectivity, greenhouse pot test
# Type: in vivo, Agrostris palustris
# SETUP_CONDITIONS: 12 g ai/ha, 2 weeks
# From the text: Turf mats of Zoysia grass, bentgrass, Kentucky bluegrass, or perennial rye grass known as cool season turfgrass or western grass were purchased and cut into a piece having 10 cm×20 cm size. Then, each piece was transplanted in a rectangular plastic pot (surface area of 300 cm^2) in which sandy loam and mixed top soil (Boo-Nong Top Soil No. 3, for horticultural use) are filled in 1:1 ratio. […]
MEASURED_PARAMETER: phytotoxicity (visual assessment 0-10)
Simply state the number, no unit and no words.

Item CCOC(=O)c1cnn(C)c1S(=O)(=O)NC(=O)Nc1nc(OC)cc(OC)n1 [Control chemical No. 1, Pyrazosulfuron ethyl, reference compound] has what recorded phytotoxicity (visual assessment 0-10)? 0

Item Cc1cc(C)nc(NC(=O)NS(=O)(=O)c2ccccc2C(O)C(C)F)n1 (stereo not shown) has what recorded phytotoxicity (visual assessment 0-10)? 0

Item COc1nc(C)nc(NC(=O)NS(=O)(=O)c2cscc2C2(CF)OCCO2)n1 has what recorded phytotoxicity (visual assessment 0-10)? 7

Item COc1cc(OC)nc(NC(=O)NS(=O)(=O)c2ncccc2C(F)(F)F)n1 [Control chemical No. 2, Flazasulfuron, reference compound] has what recorded phytotoxicity (visual assessment 0-10)? 10
